Data origin: PubChem BioAssay (EPA / NIEHS)

- assay-target: Cellular tumor antigen p53 (Homo sapiens)
- procedure-text: TOX21_p53_BLA_p5_ratio: Tox21 HCT-116 p53 Agonism Beta-lactamase Assay, Ratio, Phase 5 (AID 2283599)
Inconclusive results are not listed. Activity calls are given as the source filed them. Rule for the calls: active = hit-call score of the fitted dose curve at least 0.9, where 1 is the maximum; inconclusive = response in the unintended direction; inactive = score below 0.9.
Valid outcomes are listed here; reply with one: Y for active, N for inactive

Task item: Identify the outcome logged in this assay for the molecule shown: O=S(=O)(O)c1cc(I)c(O)c2ncccc12
Reply: N

Task item: I'd appreciate the recorded outcome for CCCCCC from this test.
Reply: N

Task item: Answer briefly: the call reported for C=CC1CO1 (centres undefined) in this assay.
Reply: N

Task item: Give the logged outcome of this assay for the following molecule: COC(=O)C1=C(C)NC(C)=C(C(=O)OC(C)(C)CN(C)CCC(c2ccccc2)c2ccccc2)C1c1cccc([N+](=O)[O-])c1 (centres undefined)
Reply: N

Task item: Dear colleague, could you share the recorded outcome for CC1=C2[C@H](/C=C(\C)C(=O)O)CC[C@@H](C)[C@H]2CC1 when you have a moment?
Reply: N

Task item: Tell me the recorded outcome of this test for CC1=C(/C=C/C(C)=C/C=C/C(C)=C/C=O)C(C)(C)CCC1 .
Reply: Y

Task item: # outcome recorded in this test, key = CC(=O)OC(C)C[N+](C)(C)C (centres undefined)
Reply: N

Task item: What classification did CC(=O)CC(=O)c1ccccc1 end up with in this test?
Reply: N

Task item: Please let me know the test result on file for O=c1[nH]cnc2nc[nH]c12 .
Reply: N

----------
- procedure-text: ATG_TGFb_CIS: Attagene CIS-FACTORIAL HepG2 Assay for human Transforming Growth Factor (TGF) (AID 2282967)
- study-conditions: HepG2 Attagene CIS TGFb reporter, mRNA transcription; actives raise or lower the signal
Active and inactive are the calls of the source. Rule for the calls: active = hit-call score of the fitted dose curve at least 0.9, where 1 is the maximum; inactive = score below 0.9.
Your response should consist of one outcome taken from active, inactive

Task item: What did this assay record as the result for O=C(c1ccccc1)c1ccccc1O ?
Reply: inactive

Task item: What did this assay record as the result for C=C1CC[C@H]2C[C@@H]1C2(C)C ?
Reply: inactive

Task item: Field: outcome | Entry: COC(=O)/C=C\C(=O)OC
Reply: inactive

Task item: # lookup: test call for CCCCCCC(O)CCCCCCCCCCC(=O)OC (stereo not given)
Reply: active

Task item: Short answer needed: outcome of this test for CN(C)CCC(c1ccc(Cl)cc1)c1ccccn1 (stereo not given) ?
Reply: inactive

----------
- procedure-text: TOX21_p53_BLA_p3_viability: Viability Assessment in the Tox21 HCT-116 p53 Agonism Beta-lactamase Assay, Phase 3 (AID 2283593);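 note: cells exposed to compound for 16 h before reading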
Inconclusive results are not listed. The source made the active and inactive calls. The calls were made as follows: active = hit-call score of the fitted dose curve at least 0.9, where 1 is the maximum; inconclusive = response in the unintended direction; inactive = score below 0.9.
readout-kind: outcome

CCCCCCCC/C=C\CCCCCCCC(=O)N(CCO)CCO | inactive
CC(=O)OC(C(=O)c1ccccc1)c1ccccc1 (stereo not drawn) | inactive
NC(N)=NCC1COc2ccccc2O1 (stereo not drawn) | inactive

----------
- assay-target: X-box-binding protein 1 (Homo sapiens)
- procedure-text: ATG_Xbp1_CIS: Attagene CIS-FACTORIAL HepG2 Assay for human X-box Binding Protein 1 (XBP1) (AID 2282972)
- study-conditions: HepG2 XBP1 cis-element reporter, Attagene multiplex; actives raise or lower the signal
Calls of active or inactive are those of the source. The calls were made as follows: active = hit-call score of the fitted dose curve at least 0.9, where 1 is the maximum; inactive = score below 0.9.
Form entry, call: pick from active, inactive

Task item: Please share the test call associated with CC/C=C\CCO .
Reply: inactive

Task item: State the result this test recorded for CC[N+](CC)(CC(=O)Nc1c(C)cccc1C)Cc1ccccc1 (tested in a mixture with another compound) .
Reply: inactive

Task item: Outcome? CC(=O)CCc1ccccc1
Reply: inactive

Task item: State the result this test recorded for CC1=C(CC=O)C(C)(C)CCC1 .
Reply: inactive

Task item: Please indicate how the test categorized CCCCCCCCCC/C=C/C1CC(=O)OC1=O (centres undefined) .
Reply: inactive

Task item: Record request — test call for O=C(C(=O)c1ccccc1)c1ccccc1
Reply: inactive

Task item: Identify the outcome logged in this assay for the compound shown: CCOC(=O)CC(=O)OCC
Reply: inactive

Task item: What classification did C=CCOCC(CC)(CO)COCC=C end up with in this test?
Reply: inactive

Task item: Field: outcome | Entry: c1cc(N(CC2CO2)CC2CO2)ccc1Cc1ccc(N(CC2CO2)CC2CO2)cc1 (centres undefined)
Reply: active
